The reported measurements were obtained from patent US8889677B2.

- assayed system: human recombinant mGluR5 (Homo sapiens)
- Construct: tetracycline removed 3-7 days before the assay
- Sequence (P41594 21-1212): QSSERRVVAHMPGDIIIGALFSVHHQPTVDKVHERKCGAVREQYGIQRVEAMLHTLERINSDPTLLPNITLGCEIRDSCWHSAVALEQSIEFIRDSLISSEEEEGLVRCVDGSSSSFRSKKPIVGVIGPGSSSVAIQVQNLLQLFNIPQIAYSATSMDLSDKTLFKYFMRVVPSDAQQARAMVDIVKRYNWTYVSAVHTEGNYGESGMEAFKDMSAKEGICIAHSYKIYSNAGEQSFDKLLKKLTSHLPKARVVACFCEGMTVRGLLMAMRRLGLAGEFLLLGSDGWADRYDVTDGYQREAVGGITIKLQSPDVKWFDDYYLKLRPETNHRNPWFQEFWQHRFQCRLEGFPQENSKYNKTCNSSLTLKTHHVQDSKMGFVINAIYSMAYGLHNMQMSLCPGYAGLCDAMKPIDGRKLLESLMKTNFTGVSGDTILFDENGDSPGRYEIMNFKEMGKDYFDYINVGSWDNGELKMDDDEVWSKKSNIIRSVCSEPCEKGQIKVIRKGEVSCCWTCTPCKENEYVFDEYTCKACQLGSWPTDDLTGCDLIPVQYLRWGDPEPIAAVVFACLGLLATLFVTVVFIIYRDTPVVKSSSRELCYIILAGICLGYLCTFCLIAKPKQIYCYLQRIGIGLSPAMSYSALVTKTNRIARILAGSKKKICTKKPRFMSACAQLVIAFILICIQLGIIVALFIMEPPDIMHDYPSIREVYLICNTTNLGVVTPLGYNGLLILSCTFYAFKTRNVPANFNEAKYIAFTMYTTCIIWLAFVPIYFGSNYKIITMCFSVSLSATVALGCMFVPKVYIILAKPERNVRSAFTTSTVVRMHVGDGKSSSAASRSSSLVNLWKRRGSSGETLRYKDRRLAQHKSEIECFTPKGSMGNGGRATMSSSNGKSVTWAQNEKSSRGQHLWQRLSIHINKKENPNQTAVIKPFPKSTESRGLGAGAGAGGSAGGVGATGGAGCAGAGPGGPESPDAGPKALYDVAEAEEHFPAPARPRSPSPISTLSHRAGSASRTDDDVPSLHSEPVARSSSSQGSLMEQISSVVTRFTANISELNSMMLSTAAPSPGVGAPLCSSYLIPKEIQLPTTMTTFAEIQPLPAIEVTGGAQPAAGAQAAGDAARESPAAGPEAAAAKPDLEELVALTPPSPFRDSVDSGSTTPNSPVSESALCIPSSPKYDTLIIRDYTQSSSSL
- protocol notes: positive modulation of mGluR5, calcium based FLIPR assay in HEK 293 cells
- test settings: HEK 293 cell line expressing human recombinant mGluR5; EC50 of the modulation of the glutamate response (glutamate approx. 5% basal stimulation); peak height of Ca release fluorescence signal
Records here are stratified by EC50; strata: one (below 200 nM), two (200 nM to below 600 nM), three (600 nM or more)

Use these answered entries as a reference point.
COc1ccnc(N2CCN(C(=O)Cn3nc(-c4ccc(F)cc4)nc3-c3ccc(F)cc3)CC2)c1 | one
O=C(Cn1nc(-c2ccc(F)cc2)nc1-c1ccc(F)cc1)N1CCN(c2ncncn2)CC1 | one
CCCc1nc(-c2ccc(OC(F)F)cc2)nn1CC(=O)N1CCN(c2cc(OC)ncn2)CC1 | three
CCOc1cc(N2CCN(C(=O)Cn3nc(-c4ccc(F)cc4)nc3-c3ccc(F)cc3)CC2)ncn1 | one
O=C(Cn1nc(-c2ccccc2)nc1-c1ccc(OC(F)F)cc1)N1CCN(c2ccccn2)CC1 | two
O=C(Cn1nc(-c2ccc(OC(F)F)cc2)nc1-c1ccccc1)N1CCN(c2ccccn2)CC1 | one
CCOC(=O)c1cccc(N2CCN(C(=O)Cn3nc(-c4ccc(F)cc4)nc3-c3ccc(F)cc3)CC2)c1 | three
COc1cc(N2CCN(C(=O)Cn3nc(-c4ccc(C5CC5)cc4)nc3-c3ccccc3)CC2)ncn1 | two
COc1ccc(-c2nc(-c3ccc(OC)cc3)n(CC(=O)N3CCN(c4ccccn4)CC3)n2)cc1 | one
CCC(C)c1nc(-c2ccc(F)c(C)c2)nn1CC(=O)N1CCN(c2cc(OC)ncn2)CC1 (centres unmarked) | three

Looking at "CCCc1nc(-c2ccc(F)c(C)c2)nn1CC(=O)N1CCN(c2ncncn2)CC1" , which class would you pick?
three

Looking at "Cc1cc(-c2nc(-c3ccccc3)n(CC(=O)N3CCN(c4cccnn4)CC3)n2)ccc1F" , which class would you pick?
one

Looking at "COc1ccc(-c2nc(-c3ccccc3)n(CC(=O)N3CCN(c4ncccc4C#N)CC3)n2)cc1OC" , which class would you pick?
two

Looking at "COc1cc(OC)nc(N2CCN(C(=O)Cn3nc(-c4ccc(F)cc4)nc3-c3ccc(F)cc3)CC2)n1" , which class would you pick?
two

Looking at "COc1cccc(-c2nc(C3CCCCC3)n(CC(=O)N3CCN(c4ncccn4)CC3)n2)c1" , which class would you pick?
three

Looking at "CCc1nc(-c2ccc(F)c(C)c2)nn1CC(=O)N1CCN(c2cc(OC)ncn2)CC1" , which class would you pick?
three

Looking at "COc1ccnc(N2CCN(C(=O)Cn3nc(-c4ccc(F)c(C)c4)nc3-c3ccccc3)CC2)c1" , which class would you pick?
one

Looking at "Cc1cc(-c2nc(C(C)C)n(CC(=O)N3CCN(c4ncccn4)CC3)n2)ccc1F" , which class would you pick?
two
